Kindly state normalized growth for each of the entries shown.
- Method: chemical genetic growth profiling, strain panel (AID 1159580);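 further: tested at 20 µM; growth read once vehicle control cultures reached saturation at 30 °C; 1 = growth at the plate median or of vehicle wells; lower values mean less growth of the strain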
- Details: S. cerevisiae deletion strains, growth OD, locus YNL209W, strain ssb2, active compounds read low
About 2,000 (36%) of roughly 5,500 compounds were called active. Not shown: some 18% with an inconclusive outcome. The list shows a part of the results.
// return just the number, without any unit appended

## Task Requested read-out: normalized growth. Entry: CCn1cc(C(=O)O)c(=O)c2cnc(N3CCNCC3)nc21
## Result 1

## Task Requested read-out: normalized growth. Entry: COc1ccc(/C=C/c2cc(O)cc(O)c2)cc1
## Result 1.01

## Task Requested read-out: normalized growth. Entry: CCOc1ccc2c(c1)C(C)=CC(C)(C)N2
## Result 0.994

## Task Requested read-out: normalized growth. Entry: O=C(O)c1cc(O)c(O)c(O)c1
## Result 1.01

## Task Requested read-out: normalized growth. Entry: O=C(O)c1cc(=O)c(O)c2c(O)c(O)ccc2c1
## Result 1

## Task Requested read-out: normalized growth. Entry: O=C1O[C@@H](CO)[C@H](O)[C@@H](O)[C@@H]1O
## Result 1.03

## Task Requested read-out: normalized growth. Entry: COc1ccc(-c2cc(C(F)F)nn2-c2ccc(S(N)(=O)=O)cc2)cc1F
## Result 1.01

## Task Requested read-out: normalized growth. Entry: CCC(COC(=O)c1cc(OC)c(OC)c(OC)c1)(c1ccccc1)N(C)C (configuration not stated)
## Result 0.98

## Task Requested read-out: normalized growth. Entry: CCn1cc(C(=O)O)c(=O)c2ccc(C)nc21
## Result 0.929

## Task Requested read-out: normalized growth. Entry: CN(Cc1cc(Br)cc(Br)c1N)C1CCCCC1
## Result 1.03

## Task Requested read-out: normalized growth. Entry: Nc1c(Br)cc(Br)cc1CNC1CCC(O)CC1 (configuration not stated)
## Result 1

## Task Requested read-out: normalized growth. Entry: NCc1ccc(S(N)(=O)=O)cc1
## Result 1

Recorded values, source PubChem BioAssay AID1159580.
